- System: PDC 521955-158-R6-J3 spheroids, viability
- testName: Anticancer human tumor 521955-158-R6-J3-PDC patient-derived pancreatic carcinoma cell line growth inhibition [TAK]
- runConditions: compound alone; run of 03/19/2020; spheroids with HUVEC and MSC
measurementType: IC50

Ask: Quick one: IC50 of CC(C)NCC(C(=O)N1CCN(c2ncnc3c2C(C)CC3O)CC1)c1ccc(Cl)cc1 (stereo unspecified) ?
Result: > 30 µM

###

For each of the molecules below, state its viability, T/C.
- Test system: PDC 521955-158-R6-J3 spheroids, viability
- testName: Anticancer human tumor 521955-158-R6-J3-PDC cell line growth inhibition [TAK];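 also: spheroids exposed to drugs for 7 days before readout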;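 as to viability, T/C: 100% = DMSO vehicle control viability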
- runConditions: second compound 9.49 µM; first compound 0.01 µM; stronger effect = lower value; spheroids with HUVEC and MSC

{"molecule": "COc1c(OCCCN2CCOCC2)ccc2c3n(c(=NC(=O)c4cnc(N)nc4)nc12)CCN3 + CC(C)NCC(C(=O)N1CCN(c2ncnc3c2C(C)CC3O)CC1)c1ccc(Cl)cc1", "measurementType": "viability, T/C", "measured": "37.5%"}
{"molecule": "CC(C)CC(NC(=O)CNC(=O)c1cc(Cl)ccc1Cl)B1OC(=O)CC(CC(=O)O)(C(=O)O)O1 (stereo not given) + CC(C)NCC(C(=O)N1CCN(c2ncnc3c2C(C)CC3O)CC1)c1ccc(Cl)cc1", "measurementType": "viability, T/C", "measured": "98%"}
{"molecule": "CC(C)CC(NC(=O)C(Cc1ccccc1)NC(=O)c1cnccn1)B(O)O (stereo not given) + CC(C)NCC(C(=O)N1CCN(c2ncnc3c2C(C)CC3O)CC1)c1ccc(Cl)cc1", "measurementType": "viability, T/C", "measured": "13.5%"}

Could you tell me viability, T/C for each of these molecules? They are listed below.
1. COC1CC2CCC(C)C(O)(O2)C(=O)C(=O)N2CCCCC2C(=O)OC(C(C)CC2CCC(OCCO)C(OC)C2)CC(=O)C(C)C=C(C)C(O)C(OC)C(=O)C(C)CC(C)C=CC=CC=C1C (stereo not given) + CC(C)NCC(C(=O)N1CCN(c2ncnc3c2C(C)CC3O)CC1)c1ccc(Cl)cc1
2. CC(C)n1nc(-c2ccc3oc(N)nc3c2)c2c(N)ncnc21 + CC(C)NCC(C(=O)N1CCN(c2ncnc3c2C(C)CC3O)CC1)c1ccc(Cl)cc1

Result:
74.8%
55%
